The reported measurements were obtained from ChEMBL document CHEMBL5500384.

# protocol.details: Hepatotoxicity in Albino mouse assessed as change in bile duct at 50 to 2000 mg/kg, po measured after 14 days
# Assay type: toxicity, organism-based, Liver
# experimental.parameters: in vivo, 336 h, dose 50-2000 mg/kg, time 14 day
measurement.kind: Activity

Previously resolved entries follow.
CN(C)c1ccc(C2C(Cl)C(=O)N2C2=C(Cl)C(=O)c3ccccc3C2=O)cc1 (configuration not stated): Non-Toxic
CCOc1cc(C2C(Cl)C(=O)N2C2=C(Cl)C(=O)c3ccccc3C2=O)ccc1O (configuration not stated): Non-Toxic
NC1=C(Cl)C(=O)c2ccccc2C1=O: Non-Toxic
O=C1C(Cl)=C(N2C(=O)C(Cl)C2c2ccc([N+](=O)[O-])cc2)C(=O)c2ccccc21 (configuration not stated): Non-Toxic
O=C1C(Cl)=C(Cl)C(=O)c2ccccc21 [Dichlon]: Non-Toxic

For record O=C1C(Cl)=C(N2C(=O)C(Cl)C2c2ccc(Cl)cc2)C(=O)c2ccccc21 (configuration not stated) the listed Activity is Non-Toxic

For record COc1ccc(C2C(Cl)C(=O)N2C2=C(Cl)C(=O)c3ccccc3C2=O)cc1 (configuration not stated) the listed Activity is Non-Toxic
